Taken from patent US12509457B2.

Biological target: SIK3 (Homo sapiens)
Sequence (Q9Y2K2 whole entry): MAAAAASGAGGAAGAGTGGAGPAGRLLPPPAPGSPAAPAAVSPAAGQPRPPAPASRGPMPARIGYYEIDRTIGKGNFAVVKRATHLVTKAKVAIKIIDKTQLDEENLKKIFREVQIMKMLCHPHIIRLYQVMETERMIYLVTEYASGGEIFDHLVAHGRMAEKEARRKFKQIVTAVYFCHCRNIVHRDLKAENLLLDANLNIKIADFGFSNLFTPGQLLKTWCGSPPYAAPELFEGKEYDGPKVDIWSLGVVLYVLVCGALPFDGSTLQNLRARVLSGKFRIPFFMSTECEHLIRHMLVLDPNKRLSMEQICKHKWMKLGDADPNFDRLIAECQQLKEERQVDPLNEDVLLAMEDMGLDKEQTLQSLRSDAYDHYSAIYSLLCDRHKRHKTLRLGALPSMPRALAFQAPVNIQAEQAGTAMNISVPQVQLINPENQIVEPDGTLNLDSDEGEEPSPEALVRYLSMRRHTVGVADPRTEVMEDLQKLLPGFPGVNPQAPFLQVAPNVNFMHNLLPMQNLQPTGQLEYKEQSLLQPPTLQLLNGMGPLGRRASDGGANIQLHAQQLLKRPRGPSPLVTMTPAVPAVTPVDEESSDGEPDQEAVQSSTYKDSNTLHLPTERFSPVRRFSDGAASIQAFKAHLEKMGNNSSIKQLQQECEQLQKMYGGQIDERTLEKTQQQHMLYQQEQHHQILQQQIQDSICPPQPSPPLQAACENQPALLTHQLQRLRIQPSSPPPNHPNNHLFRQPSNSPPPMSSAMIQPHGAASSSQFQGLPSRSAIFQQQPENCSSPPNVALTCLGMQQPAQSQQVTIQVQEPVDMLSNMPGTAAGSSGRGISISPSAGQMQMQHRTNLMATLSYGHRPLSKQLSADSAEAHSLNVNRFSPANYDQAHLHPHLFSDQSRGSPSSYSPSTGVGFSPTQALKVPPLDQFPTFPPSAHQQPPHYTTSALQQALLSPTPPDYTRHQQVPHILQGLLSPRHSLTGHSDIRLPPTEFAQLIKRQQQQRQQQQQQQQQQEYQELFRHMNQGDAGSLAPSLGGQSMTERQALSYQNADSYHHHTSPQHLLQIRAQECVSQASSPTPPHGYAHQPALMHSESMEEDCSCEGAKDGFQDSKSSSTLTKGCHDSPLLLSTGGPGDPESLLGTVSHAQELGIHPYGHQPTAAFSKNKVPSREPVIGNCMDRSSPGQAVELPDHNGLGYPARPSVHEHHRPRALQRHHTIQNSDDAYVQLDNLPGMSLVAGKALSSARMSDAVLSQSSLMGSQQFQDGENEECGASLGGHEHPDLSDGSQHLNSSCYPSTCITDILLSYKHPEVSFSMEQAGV
Assay: SIK3 kinase assay, IMAP fluorescence polarization
Assay type: biochemical
Details: 50 or 100 μM ATP; average; read-out: SIK3-AVERAGE Ki
pKi: −log10 of the molar value.
Recorded pKi determines the group label, using low range: < 8; mid range: ≥ 8 and < 9; high range: ≥ 9

Class for `Cc1cccc(F)c1N1Cc2cnc(N)cc2N([C@@H]2CCCNC2)C1=O` ?
mid range

Sort `Cc1cccc(F)c1N1Cc2cnc(N)nc2N(C2CN(C)C2)C1=O` into one of the categories.
low range

The entry to classify is `CN[C@H]1CC[C@@H](N2C(=O)N(c3c(C)cccc3F)Cc3cnc(N)cc32)CC1` ; which class holds it?
mid range

Bin? `Cc1cccc(F)c1N1Cc2cnc(N)cc2N(C2CNC2)C1=O`
low range

Further cases:
Band of `Cc1cccc(F)c1N1Cc2cnc(N)cc2N([C@H]2CC[C@H](N(C)C)CC2)C1=O` ?
high range

* * *

Target: SIK1 (Homo sapiens, UniProt P57059)
Sequence (P57059 whole entry): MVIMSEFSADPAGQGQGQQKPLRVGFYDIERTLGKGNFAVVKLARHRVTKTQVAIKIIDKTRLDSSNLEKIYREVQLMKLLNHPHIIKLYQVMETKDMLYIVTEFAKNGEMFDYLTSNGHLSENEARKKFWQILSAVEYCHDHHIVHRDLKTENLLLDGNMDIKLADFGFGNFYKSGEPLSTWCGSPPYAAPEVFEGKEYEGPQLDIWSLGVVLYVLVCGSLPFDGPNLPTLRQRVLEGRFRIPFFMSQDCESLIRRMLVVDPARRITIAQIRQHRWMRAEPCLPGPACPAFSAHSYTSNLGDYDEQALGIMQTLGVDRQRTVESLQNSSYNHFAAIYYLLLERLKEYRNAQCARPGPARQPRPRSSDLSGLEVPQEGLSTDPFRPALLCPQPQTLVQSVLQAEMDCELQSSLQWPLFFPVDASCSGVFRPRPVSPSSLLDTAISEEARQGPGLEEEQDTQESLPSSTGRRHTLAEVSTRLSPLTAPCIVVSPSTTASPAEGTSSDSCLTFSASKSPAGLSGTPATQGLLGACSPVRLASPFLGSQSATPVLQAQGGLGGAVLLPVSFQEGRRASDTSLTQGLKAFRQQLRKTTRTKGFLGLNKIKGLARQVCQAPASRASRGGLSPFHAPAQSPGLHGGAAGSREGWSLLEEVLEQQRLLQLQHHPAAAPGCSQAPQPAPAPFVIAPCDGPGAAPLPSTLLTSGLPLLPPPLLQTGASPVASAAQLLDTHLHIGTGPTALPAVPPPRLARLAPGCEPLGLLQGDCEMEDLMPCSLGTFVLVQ
Test: SIK1 kinase assay, IMAP fluorescence polarization
Assay type: biochemical
Conditions: 50 or 100 μM ATP; average; read-out: SIK1-AVERAGE Ki
Define the label as satisfied when Ki is strictly less than 10 nM and as not satisfied in all remaining cases.

Regarding `Cc1cccc(F)c1N1Cc2cnc(N)nc2N([C@H]2CCN(C)C2)C1=O` , kindly confirm whether its Ki is beneath 10 nM.
not satisfied

Next:
is_below(Ki, 10 nM) for `Cc1cccc(F)c1N1Cc2cnc(N)nc2N([C@H]2CCNC2)C1=O` ?
satisfied

* * *

Molecular target: Abl (Homo sapiens)
Experiment: Abl kinase assay, IMAP fluorescence polarization
Format: biochemical
Settings: 50 or 100 μM ATP; average; read-out: Abl-AVERAGE Ki
# Ki per record follows

Below are worked cases with known answers.
Recall the recorded Ki for CN[C@H]1CC[C@@H](N2C(=O)N(c3c(C)cccc3F)Cc3cnc(N)cc32)CC1 [Example 63] with Abl (Homo sapiens) and state it.
11 nM

Param readout= Ki; system= Abl (Homo sapiens); entry= Cc1cccc(F)c1N1Cc2cnc(N(C)C)cc2N([C@H]2CC[C@@H](N(C)C)CC2)C1=O [Example 41] ; returns value.
> 10000 nM

Test system Abl (Homo sapiens); read-out Ki; what value for Cc1cccc(Cl)c1N1Cc2cnc(N)nc2N(C2CNC2)C1=O [Example 14] ?
42.5 nM

// below: Ki requested for another compound
Lookup: Ki / Abl (Homo sapiens) / Cc1cccc(F)c1N1Cc2cnc(N)cc2N([C@@H]2CCCN(C)CC2)C1=O [Example 84]
14.9 nM

* * *

Target: SIK2 (Homo sapiens)
Assay: SIK2 kinase assay, IMAP fluorescence polarization
Type: biochemical
Settings: 50 or 100 μM ATP; average; read-out: SIK2-AVERAGE Ki
metric name: log10 of Ki (log10 of the value in nM)
Values reflect log10 of reported Ki (nM).

Dear colleague, I am looking for the recorded log10 of Ki of the following compound: `Cc1cccc(F)c1N1Cc2cnc(N)cc2N([C@H]2CC[C@H](N)CC2)C1=O`
-0.92

Given `Cc1cccc(F)c1N1Cc2cnc(N)nc2N(C2CNC2)C1=O` , state its recorded log10 of Ki.
0.25

Could you tell me which log10 of Ki is on file for `Cc1cccc(F)c1N1Cc2cnc(N)nc2N([C@H]2CCNC2)C1=O` ?
0.05

Need log10 of Ki, item `Cc1cccc(F)c1N1Cc2cnc(N)cc2N(C2CNC2)C1=O`
0.61

What value of measured log10 of Ki is listed for `Cc1cccc(F)c1N1Cc2cnc(N)cc2N([C@H]2CCCN(C)C2)C1=O` ?
-0.30

* * *

Items are presented alongside their recorded pKi.
Target: Abl (Homo sapiens, UniProt P00519)
Sequence (P00519 whole entry): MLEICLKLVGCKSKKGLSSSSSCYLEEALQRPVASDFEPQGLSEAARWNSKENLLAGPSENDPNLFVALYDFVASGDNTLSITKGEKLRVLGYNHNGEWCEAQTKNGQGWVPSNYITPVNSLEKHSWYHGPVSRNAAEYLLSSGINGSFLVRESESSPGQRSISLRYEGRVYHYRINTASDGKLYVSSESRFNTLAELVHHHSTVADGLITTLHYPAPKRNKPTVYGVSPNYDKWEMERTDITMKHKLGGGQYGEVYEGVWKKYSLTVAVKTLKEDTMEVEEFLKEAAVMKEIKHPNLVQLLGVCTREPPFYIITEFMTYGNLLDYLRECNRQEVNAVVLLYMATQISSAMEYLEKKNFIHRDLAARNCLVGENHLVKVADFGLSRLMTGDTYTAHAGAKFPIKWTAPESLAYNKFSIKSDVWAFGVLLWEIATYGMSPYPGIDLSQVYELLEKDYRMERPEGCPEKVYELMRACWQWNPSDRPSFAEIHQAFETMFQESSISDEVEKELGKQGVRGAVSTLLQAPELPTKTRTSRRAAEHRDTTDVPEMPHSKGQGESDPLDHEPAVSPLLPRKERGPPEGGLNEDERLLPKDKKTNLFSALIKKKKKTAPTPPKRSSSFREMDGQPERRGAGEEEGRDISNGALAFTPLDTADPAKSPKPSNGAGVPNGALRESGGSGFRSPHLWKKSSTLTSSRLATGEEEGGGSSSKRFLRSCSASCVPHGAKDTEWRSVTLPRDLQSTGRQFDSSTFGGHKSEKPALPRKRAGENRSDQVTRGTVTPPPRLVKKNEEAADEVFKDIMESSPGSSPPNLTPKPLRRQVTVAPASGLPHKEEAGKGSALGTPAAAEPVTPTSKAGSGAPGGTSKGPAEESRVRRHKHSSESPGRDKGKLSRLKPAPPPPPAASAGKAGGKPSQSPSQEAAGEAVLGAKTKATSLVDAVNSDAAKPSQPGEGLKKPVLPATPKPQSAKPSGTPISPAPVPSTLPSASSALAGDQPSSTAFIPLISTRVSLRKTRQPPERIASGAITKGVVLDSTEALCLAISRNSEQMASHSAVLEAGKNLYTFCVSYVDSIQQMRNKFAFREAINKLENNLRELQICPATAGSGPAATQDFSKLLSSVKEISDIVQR
Experiment: Abl kinase assay, IMAP fluorescence polarization
Assay type: biochemical
Conditions: 50 or 100 μM ATP; average; read-out: Abl-AVERAGE Ki
In plain terms, pKi is the concentration in mol/L turned into minus its base-10 logarithm.

Past entries and their recorded results:
Recorded pKi of `Cc1cccc(F)c1N1Cc2cnc(N)nc2N([C@H]2CCN(C)C2)C1=O` , please.
6.35

Consider the compound shown here: `Cc1cccc(F)c1N1Cc2cnc(N)cc2N([C@H]2CCCNCC2)C1=O` What is its recorded pKi?
7.19

Entry `Cc1cccc(F)c1N1Cc2cnc(N)nc2N([C@H]2CC[C@H](N(C)C)CC2)C1=O` : reported pKi = ?
7.80

Continuing:
Returns the measured pKi for the input compound. Input: `Cc1cccc(F)c1N1Cc2cnc(N)nc2N([C@H]2CCCNC2)C1=O`
6.98

Given the compound Cc1cccc(F)c1N1Cc2cnc(N)cc2N([C@H]2CCC[C@@H](N(C)C)C2)C1=O (relative stereo) , what is its reported pKi?
7.60

Which pKi value is on record for `Cc1cccc(F)c1N1Cc2cnc(N)nc2N([C@H]2CCCCN(C)C2)C1=O` ?
7.21

What value of pKi has been reported for the following compound? `CNc1cc2c(cn1)CN(c1c(C)cccc1F)C(=O)N2[C@H]1CC[C@@H](N(C)C)CC1`
7.20

GET /values?readout=pKi&item= `Cc1cccc(F)c1N1Cc2cnc(N)nc2N([C@H]2CCCN(C)CC2)C1=O`
6.98

* * *

Biological target: SIK2 (Homo sapiens)
Assay: SIK2 kinase assay, IMAP fluorescence polarization
Type: biochemical
Conditions: 50 or 100 μM ATP; average; read-out: SIK2-AVERAGE Ki
pKi: −log10 of the molar value.
Quick rule for you: pKi at 9 or higher means y, lower means n.

These recorded examples may help you get a feel for the data.
Dear colleague, could you confirm whether `Cc1cccc(F)c1N1Cc2cnc(N)cc2N([C@@H]2CCCCNC2)C1=O` has pKi at or above 9?
y

In plain terms: is recorded pKi at least 9 for `Cc1cccc(Cl)c1N1Cc2cnc(N)nc2N(C2CN(C)C2)C1=O` ?
n

Identify whether the reported pKi of the following molecule is 9 or greater: `Cc1cccc(F)c1N1Cc2cnc(N)cc2N([C@H]2CC[C@H](N(C)C)CC2)C1=O`
y

Test whether the molecule `Cc1cccc(F)c1N1Cc2cnc(N)nc2N([C@H]2CCCNC2)C1=O` records pKi of 9 or higher.
y

Others:
Please check the record `Cc1cccc(F)c1N1Cc2cnc(N)nc2N([C@H]2CC[C@H](N(C)C)CC2)C1=O` and state if its pKi is at or above 9.
y

* * *

Biological target: Src (Homo sapiens, UniProt P12931)
Sequence (P12931 whole entry): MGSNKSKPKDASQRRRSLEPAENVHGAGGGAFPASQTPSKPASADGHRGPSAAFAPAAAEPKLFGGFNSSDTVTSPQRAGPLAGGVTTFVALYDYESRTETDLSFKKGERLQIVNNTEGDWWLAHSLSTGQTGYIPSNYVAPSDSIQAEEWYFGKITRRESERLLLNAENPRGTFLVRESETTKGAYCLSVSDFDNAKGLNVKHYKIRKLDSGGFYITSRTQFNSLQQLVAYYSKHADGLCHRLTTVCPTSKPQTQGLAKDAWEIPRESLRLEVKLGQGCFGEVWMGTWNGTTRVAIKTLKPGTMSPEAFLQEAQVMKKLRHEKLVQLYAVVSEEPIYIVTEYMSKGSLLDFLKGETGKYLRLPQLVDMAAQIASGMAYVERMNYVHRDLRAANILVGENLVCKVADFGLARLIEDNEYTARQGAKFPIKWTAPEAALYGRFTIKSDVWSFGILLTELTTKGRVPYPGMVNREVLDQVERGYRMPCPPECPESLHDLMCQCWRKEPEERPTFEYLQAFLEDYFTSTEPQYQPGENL
Assay: Src kinase assay, IMAP fluorescence polarization
Type: biochemical
Details: 50 or 100 μM ATP; average; read-out: Src-AVERAGE Ki
Reported Ki values are given for each entry in this list.

Known Ki results, listed for orientation:
Which Ki reading was recorded for the compound Cc1cccc(F)c1N1Cc2cnc(N)nc2N([C@H]2CCN(C)C2)C1=O [Example 30] ?
1880 nM

Need Ki, item Cc1cccc(F)c1N1Cc2cnccc2N([C@H]2CCCCNC2)C1=O [Example 52]
> 10000 nM

For the compound shown here, Cc1cccc(F)c1N1Cc2cnc(N)nc2N([C@H]2CC[C@@H](N(C)C)CC2)C1=O [Example 39] , give the reported Ki.
86 nM

Fill blank: measured Ki of the compound Cc1cccc(F)c1N1Cc2cnc(N)cc2N([C@H]2CCN(C)C2)C1=O [Example 79] is ____.
> 10000 nM

Find the recorded Ki belonging to Cc1cccc(F)c1N1Cc2cnc(N)cc2N([C@H]2CCC[C@H](N)C2)C1=O (relative stereo) [Example 55] and report it.
33 nM

Others:
// lookup Ki for Cc1cccc(F)c1N1Cc2cnc(N)nc2N([C@@H]2CCCNC2)C1=O [Example 73]
77.2 nM

Give the measured Ki of Cc1cccc(F)c1N1Cc2cnc(N)cc2N([C@H]2CC[C@@H](N(C)C)CC2)C1=O [Example 46] .
163 nM

Ki lookup needed for Cc1cccc(Cl)c1N1Cc2cnc(N)cc2N(C2CN(C)C2)C1=O [Example 9] , thanks.
> 1000 nM

Recorded Ki of Cc1cccc(F)c1N1Cc2cnc(N)nc2N(CC2CCNCC2)C1=O [Example 12] , please.
39.3 nM

Ki lookup needed for Cc1cccc(F)c1N1Cc2cnc(N)nc2N([C@H]2CCCNCC2)C1=O [Example 69] , thanks.
44.2 nM

Any idea what its Ki is? The compound is CNc1cc2c(cn1)CN(c1c(C)cccc1F)C(=O)N2C1CN(C)C1 [Example 10]
> 1000 nM

Fill in the blank: the reported Ki of Cc1cccc(F)c1N1Cc2cnc(N)nc2N([C@@H]2CCN(C)C2)C1=O [Example 31] is ____.
> 10000 nM

Consider the compound shown here: Cc1cccc(F)c1N1Cc2cnc(N)nc2N([C@H]2CCCCN(C)C2)C1=O [Example 36] What is its recorded Ki?
138 nM

* * *

# reported Ki; entries follow
Target: SIK2 (Homo sapiens, UniProt Q9H0K1)
Sequence (Q9H0K1 whole entry): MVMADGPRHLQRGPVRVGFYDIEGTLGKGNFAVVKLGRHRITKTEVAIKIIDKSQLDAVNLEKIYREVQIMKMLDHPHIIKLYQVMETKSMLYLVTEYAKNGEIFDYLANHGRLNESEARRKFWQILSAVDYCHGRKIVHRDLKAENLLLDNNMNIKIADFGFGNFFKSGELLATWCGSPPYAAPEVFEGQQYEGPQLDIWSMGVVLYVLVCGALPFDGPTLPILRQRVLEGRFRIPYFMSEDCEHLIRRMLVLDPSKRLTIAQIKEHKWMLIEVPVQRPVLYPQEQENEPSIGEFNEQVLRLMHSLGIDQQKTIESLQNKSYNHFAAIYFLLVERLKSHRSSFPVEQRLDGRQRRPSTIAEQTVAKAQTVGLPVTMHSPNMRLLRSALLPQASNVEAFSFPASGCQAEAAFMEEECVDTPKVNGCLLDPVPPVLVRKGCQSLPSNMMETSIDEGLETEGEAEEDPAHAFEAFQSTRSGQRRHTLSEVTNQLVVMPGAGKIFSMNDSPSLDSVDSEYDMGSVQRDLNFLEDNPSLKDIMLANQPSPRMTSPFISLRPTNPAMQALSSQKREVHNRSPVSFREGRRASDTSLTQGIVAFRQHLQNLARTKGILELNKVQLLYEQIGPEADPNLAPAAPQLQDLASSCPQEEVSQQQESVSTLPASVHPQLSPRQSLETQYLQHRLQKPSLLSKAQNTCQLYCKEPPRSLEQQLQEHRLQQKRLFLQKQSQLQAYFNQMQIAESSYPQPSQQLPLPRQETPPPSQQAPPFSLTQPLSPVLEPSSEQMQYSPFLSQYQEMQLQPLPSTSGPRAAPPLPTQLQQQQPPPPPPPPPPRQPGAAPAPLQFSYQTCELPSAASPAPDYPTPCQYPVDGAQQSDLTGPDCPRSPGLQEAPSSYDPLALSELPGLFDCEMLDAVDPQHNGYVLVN
Assay: SIK2 kinase assay, IMAP fluorescence polarization
Format: biochemical
Settings: 50 or 100 μM ATP; average; read-out: SIK2-AVERAGE Ki
Quick note: give the figure in nM, leave out the unit.

For orientation, consider the following solved cases.
Which Ki is listed for Cc1cccc(F)c1N1Cc2cnc(N(C)C)cc2N([C@H]2CCC[C@@H](N(C)C)C2)C1=O (relative stereo) ?
123

Would you mind telling me what Ki value was observed for `Cc1cccc(F)c1N1Cc2cnc(N)nc2N([C@@H]2CCCCN(C)C2)C1=O` ?
2.7

Sample `Cc1cccc(F)c1N1Cc2cnc(N)nc2N([C@@H]2CCCN(C)C2)C1=O` — what was its Ki?
1.52

New cases:
// Ki lookup, key: `Cc1cccc(F)c1N1Cc2cnc(N)nc2N([C@@H]2CCCCNC2)C1=O`
1.14

Look up Ki for this compound: `Cc1cccc(F)c1N1Cc2cnc(N)cc2N([C@H]2CCNC2)C1=O`
1.62

Give its Ki value. Item: `Cc1cccc(Cl)c1N1Cc2cnc(N)nc2N(C2CNC2)C1=O`
1.67

I have this compound here, Cc1cccc(F)c1N1Cc2cnc(N)cc2N([C@H]2CCC[C@H](N)C2)C1=O (relative stereo) , and I need its recorded Ki.
0.364

# query: Ki of entry `Cc1cccc(F)c1N1Cc2cnc(N)cc2N([C@H]2CCCCNC2)C1=O`
2.24
